experiment: Cmax in male Wistar Hannover rat at 500 umol/kg, po qd administered for 7 days measured on day 7; conditions: in vivo
PARAMETER MEASURED: Cmax (µM)
Could you give me the number in µM? Just the number is fine.

Query: // fetch Cmax given entry NS(=O)(=O)c1ccccc1S(=O)(=O)NC(=O)c1ccc(C#Cc2ccccc2)cc1
Response: 68

====

assay: AUC (0 to 24 hrs) in male Wistar Hannover rat at 1000 umol/kg, po qd measured on day 1; conditions: plasma
PARAMETER MEASURED: AUC(0-t) at 24 h (µM·h)
Could you give me the number in µM·h? Just the number is fine.

Query: // fetch AUC(0-t) at 24 h given entry NS(=O)(=O)c1ccccc1S(=O)(=O)NC(=O)c1ccc(C#Cc2ccccc2)cc1
Response: 610

====

assay: AUC (0 to 24 hrs) in female Wistar Hannover rat at 1000 umol/kg, po qd measured on day 1; settings: plasma
PARAMETER MEASURED: AUC(0-t) at 24 h (µM·h)
Could you give me the number in µM·h? Just the number is fine.

Query: // fetch AUC(0-t) at 24 h given entry NS(=O)(=O)c1ccccc1S(=O)(=O)NC(=O)c1ccc(C#Cc2ccccc2)cc1
Response: 1020

====

assay: Cmax in Sprague-Dawley rat at 2000 umol/kg, po qd administered for 7 days measured on day 7; type: ADME, organism-based; set-up: dose 2000 umol/kg, route oral; details: in vivo
PARAMETER MEASURED: Cmax (µM)
Could you give me the number in µM? Just the number is fine.

Query: // fetch Cmax given entry NS(=O)(=O)c1ccccc1S(N)(=O)=O
Response: 80

====

assay: Cmax in Wistar Hannover rat at 500 umol/kg, po qd measured on day 1; settings: in vivo
PARAMETER MEASURED: Cmax (µM)
Could you give me the number in µM? Just the number is fine.

| TEST SMILES | Cmax / µM |
| --- | --- |
| NS(=O)(=O)c1ccccc1S(N)(=O)=O | 57 |

Query: // fetch Cmax given entry CC(C)C#Cc1ccc(C(=O)NS(=O)(=O)c2ccccc2S(N)(=O)=O)cc1OCCC(F)(F)F
Response: 300

====

assay: AUC (0 to 24 hrs) in Sprague-Dawley rat at 1000 umol/kg, po qd administered for 7 days measured on day 7; assay type: ADME, organism-based; design: time < 24 hr, dose 1000 umol/kg, route oral; conditions: plasma
PARAMETER MEASURED: AUC at 24 h (µM·h)
Could you give me the number in µM·h? Just the number is fine.

Query: // fetch AUC at 24 h given entry NS(=O)(=O)c1ccccc1S(=O)(=O)NC(=O)c1ccc(C#Cc2ccccc2)cc1
Response: 990

====

experiment: AUC (0 to 24 hrs) in Wistar Hannover rat at 70 umol/kg, po qd measured on day 1; conditions: plasma
PARAMETER MEASURED: AUC(0-t) at 24 h (µM·h)
Could you give me the number in µM·h? Just the number is fine.

Query: // fetch AUC(0-t) at 24 h given entry COc1cc(C(=O)NS(=O)(=O)c2ccccc2S(N)(=O)=O)ccc1C#CC1CC1
Response: 610

====

experiment: Cmax in Sprague-Dawley rat at 900 umol/kg, po qd administered for 14 days measured on day 14; format: ADME, organism-based; parameters: dose 900 umol/kg, route oral; details: in vivo
PARAMETER MEASURED: Cmax (µM)
Could you give me the number in µM? Just the number is fine.

Query: // fetch Cmax given entry Cc1cc(C(=O)NS(=O)(=O)c2ccccc2S(N)(=O)=O)ccc1C#CC1CCC1
Response: 480

====

assay: Cmax in Sprague-Dawley rat at 70 umol/kg, po qd administered for 7 days measured on day 7; type: ADME, organism-based; design: dose 70 umol/kg, route oral; conditions: in vivo
PARAMETER MEASURED: Cmax (µM)
Could you give me the number in µM? Just the number is fine.

Query: // fetch Cmax given entry COc1cc(C(=O)NS(=O)(=O)c2ccccc2S(N)(=O)=O)ccc1C#CC1CC1
Response: 50

====

assay: AUC (0 to 24 hrs) in Sprague-Dawley rat at 200 umol/kg, po qd administered for 7 days measured on day 7; format: ADME, organism-based; design: dose 200 umol/kg, time < 24 hr, route oral; settings: plasma
PARAMETER MEASURED: AUC at 24 h (µM·h)
Could you give me the number in µM·h? Just the number is fine.

Query: // fetch AUC at 24 h given entry COc1cc(C(=O)NS(=O)(=O)c2ccccc2S(N)(=O)=O)ccc1C#CC1CC1
Response: 1070

====

assay: Cmax in female Wistar Hannover rat at 500 umol/kg, po qd administered for 7 days measured on day 7; settings: in vivo
PARAMETER MEASURED: Cmax (µM)
Could you give me the number in µM? Just the number is fine.

Query: // fetch Cmax given entry NS(=O)(=O)c1ccccc1S(=O)(=O)NC(=O)c1ccc(C#Cc2ccccc2)cc1
Response: 39

====

assay: AUC (0 to 24 hrs) in Sprague-Dawley rat at 435 umol/kg, po qd measured on day 1; format: ADME, organism-based; set-up: dose 435 umol/kg, time < 24 hr, route oral; conditions: plasma
PARAMETER MEASURED: AUC(0-t) at 24 h (µM·h)
Could you give me the number in µM·h? Just the number is fine.

Query: // fetch AUC(0-t) at 24 h given entry Cc1cc(C(=O)NS(=O)(=O)c2ccccc2S(N)(=O)=O)ccc1C#CC1CCC1
Response: 2220

====

test: Cmax in Wistar Hannover rat at 170 umol/kg, po qd measured on day 1; conditions: in vivo
PARAMETER MEASURED: Cmax (µM)
Could you give me the number in µM? Just the number is fine.

Query: // fetch Cmax given entry CC(C)C#Cc1ccc(C(=O)NS(=O)(=O)c2ccccc2S(N)(=O)=O)cc1OCCC(F)(F)F
Response: 170

====

assay: AUC (0 to 24 hrs) in Wistar Hannover rat at 170 umol/kg, po qd measured on day 1; settings: plasma
PARAMETER MEASURED: AUC(0-t) at 24 h (µM·h)
Could you give me the number in µM·h? Just the number is fine.

Query: // fetch AUC(0-t) at 24 h given entry CC(C)C#Cc1ccc(C(=O)NS(=O)(=O)c2ccccc2S(N)(=O)=O)cc1OCCC(F)(F)F
Response: 1260

====

assay: AUC (0 to 24 hrs) in Sprague-Dawley rat at 70 umol/kg, po qd administered for 7 days measured on day 7; assay type: ADME, organism-based; parameters: time < 24 hr, dose 70 umol/kg, route oral; conditions: plasma
PARAMETER MEASURED: AUC at 24 h (µM·h)
Could you give me the number in µM·h? Just the number is fine.

Query: // fetch AUC at 24 h given entry COc1cc(C(=O)NS(=O)(=O)c2ccccc2S(N)(=O)=O)ccc1C#CC1CC1
Response: 550

====

test: Cmax in Sprague-Dawley rat at 170 umol/kg, po qd administered for 7 days measured on day 7; assay type: ADME, organism-based; design: dose 170 umol/kg, route oral; conditions: in vivo
PARAMETER MEASURED: Cmax (µM)
Could you give me the number in µM? Just the number is fine.

Query: // fetch Cmax given entry CC(C)C#Cc1ccc(C(=O)NS(=O)(=O)c2ccccc2S(N)(=O)=O)cc1OCCC(F)(F)F
Response: 190

====

assay: AUC (0 to 24 hrs) in Sprague-Dawley rat at 435 umol/kg, po qd administered for 14 days measured on day 14; format: ADME, organism-based; set-up: dose 435 umol/kg, time < 24 hr, route oral; settings: plasma
PARAMETER MEASURED: AUC at 24 h (µM·h)
Could you give me the number in µM·h? Just the number is fine.

Query: // fetch AUC at 24 h given entry Cc1cc(C(=O)NS(=O)(=O)c2ccccc2S(N)(=O)=O)ccc1C#CC1CCC1
Response: 2520

====

test: AUC (0 to 24 hrs) in Wistar Hannover rat at 200 umol/kg, po qd measured on day 1; conditions: plasma
PARAMETER MEASURED: AUC(0-t) at 24 h (µM·h)
Could you give me the number in µM·h? Just the number is fine.

Query: // fetch AUC(0-t) at 24 h given entry COc1cc(C(=O)NS(=O)(=O)c2ccccc2S(N)(=O)=O)ccc1C#CC1CC1
Response: 970

====

assay: Solubility in rat urine at pH 7 after 5 hrs; format: physicochemical
Quick list: solubility at 5 h per entry.
Could you give me the number in µM? Just the number is fine.

| TEST SMILES | UNIT STRING | NUMBER |
| --- | --- | --- |
| NS(=O)(=O)c1ccccc1S(=O)(=O)NC(=O)c1ccc(C#Cc2ccccc2)cc1 | µM | 45 |

Query: // fetch solubility at 5 h given entry NS(=O)(=O)c1ccccc1S(N)(=O)=O
Response: 83

FYI, the data here is from ChEMBL document CHEMBL3526126.
